Below are IC50 values measured for Oxytocin receptor (uterin muscle membrane preparation) (Rattus norvegicus).
recorded endpoint: IC50 (µM)

Examples with their reported IC50 follow.
Data request, read-out IC50, for CN(C)C(=O)CC1CCCN(C(=O)c2ccc(NC(=O)c3ccccc3OCCCCNC(C)(C)C)cc2)c2ccc(Cl)cc21 (stereo not shown)
4.71

Returns the measured IC50 for the input compound. Input: Cc1ccccc1C(=O)Nc1ccc(C(=O)N2CCCC(CC(=O)N3CCN(C)CC3)c3cc(Cl)ccc32)c(Cl)c1 (stereo not shown)
1.9

Given the compound CCN1CCN(C(=O)COC2CCCN(C(=O)c3ccc(N4CCc5ccccc5C4=O)cc3)c3ccc(Cl)cc32)CC1 (stereo not shown) , what is its reported IC50?
0.095

Which IC50 reading was recorded for the compound Cc1cc(NC(=O)c2ccccc2Cl)ccc1C(=O)N1CCCC(CCN2CCCCC2)c2cc(Cl)ccc21 (stereo not shown) ?
4.4

a: Cc1ccccc1C(=O)Nc1ccc(C(=O)N2CCCC(CCN3CCOCC3)c3cc(Cl)ccc32)c(C)c1 (stereo not shown)
b: CCN(CC)CCCNCCOC1CCCN(C(=O)c2ccc(NC(=O)c3ccccc3Cl)cc2OC)c2ccc(Cl)cc21 (stereo not shown)
c: CCN1CCN(C(=O)CCOC2CCCN(C(=O)c3ccc(N4Cc5ccccc5C4=O)cc3)c3ccc(Cl)cc32)CC1 (stereo not shown)
Which order do these items take when sorted by rising IC50? List them. Answer format: the labels, ordered as requested.
b, c, a

###

Molecular target: V1 Recepter (rat liver plasma membrane preparations) (Rattus norvegicus)
Construct: rat liver plasma membrane preparations
Sequence (P30560 whole entry): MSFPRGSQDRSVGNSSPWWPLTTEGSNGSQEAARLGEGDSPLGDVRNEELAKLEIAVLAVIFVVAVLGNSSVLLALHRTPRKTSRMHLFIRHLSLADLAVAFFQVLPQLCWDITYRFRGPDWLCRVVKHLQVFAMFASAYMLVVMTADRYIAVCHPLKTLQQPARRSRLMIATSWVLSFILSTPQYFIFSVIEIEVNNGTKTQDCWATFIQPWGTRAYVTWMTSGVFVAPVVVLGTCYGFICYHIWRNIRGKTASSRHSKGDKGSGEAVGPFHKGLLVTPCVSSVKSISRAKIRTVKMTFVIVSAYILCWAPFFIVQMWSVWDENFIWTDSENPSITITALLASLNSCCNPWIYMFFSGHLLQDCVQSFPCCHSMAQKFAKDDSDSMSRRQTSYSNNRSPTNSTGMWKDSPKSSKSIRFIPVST
Assay: V1 Recepter binding assay
Settings: [3H]-Arg-vasopressin 2×10^-10 M, 37° C., 10 minutes, pH 8.0, rat liver plasma membrane
Experimental: Test-1: V1 Recepter binding assay By using rat liver plasma membrane preparations prepared according to Ichiraha's method [by Akira Ichihara: J. Bio. […] The amount of [^3 H]-vasopressin combining with the membrane was measured by liquid scintillation counter and the rate of inhibitory effect of the test compound was calculated according to the following equation: […]
recorded endpoint: IC50 (nM)

Example results:
Observed IC50 on V1 Recepter (rat liver plasma membrane preparations) (Rattus norvegicus) for COc1cc(NC(=O)c2ccccc2Cl)ccc1C(=O)N1CCCC(CC(=O)NCCN(C)CCO)c2cc(Cl)ccc21 (stereo not shown) , please.
6

Form field - read-out: IC50; system: V1 Recepter (rat liver plasma membrane preparations) (Rattus norvegicus); submitted item: COc1cc(NC(=O)c2ccccc2Cl)ccc1C(=O)N1CCCC(OCC[S+]([O-])c2ncc[nH]2)c2cc(Cl)ccc21 (stereo not shown)
55

Reported IC50 for V1 Recepter (rat liver plasma membrane preparations) (Rattus norvegicus), given CCN(CC)CCOC1CCCN(C(=O)c2ccc(N3Cc4ccccc4C3=O)cc2)c2ccc(Cl)cc21 (stereo not shown) ?
32

I: C#CCNCCOC1CCCN(C(=O)c2ccc(NC(=O)c3ccccc3Cl)cc2OC)c2ccc(Cl)cc21 (stereo not shown)
II: COc1cc(NC(=O)c2ccccc2Cl)ccc1C(=O)N1CCCC(CCN2CCN(S(C)(=O)=O)CC2)c2cc(Cl)ccc21 (stereo not shown)
III: COc1cc(C(=O)N2CCCC(OCC(=O)NCCN3CCOCC3)c3cc(Cl)ccc32)ccc1NC(=O)c1ccccc1Br (stereo not shown)
IV: COc1cc(NC(=O)c2ccccc2Cl)ccc1C(=O)N1CCCC(CC(=O)N2CCN(CC(=O)N3CCCC3)CC2)c2cc(Cl)ccc21 (stereo not shown)
Form: Sort by [IC50] Order [ ascending ] Sort and list the labels as requested.
III, IV, I, II
(III: 10 nM, IV: 16 nM, I: 24 nM, II: 54 nM)

###

biological target: Oxytocin receptor (uterin muscle membrane preparation) (Rattus norvegicus, UniProt P70536)
Sequence (P70536 whole entry): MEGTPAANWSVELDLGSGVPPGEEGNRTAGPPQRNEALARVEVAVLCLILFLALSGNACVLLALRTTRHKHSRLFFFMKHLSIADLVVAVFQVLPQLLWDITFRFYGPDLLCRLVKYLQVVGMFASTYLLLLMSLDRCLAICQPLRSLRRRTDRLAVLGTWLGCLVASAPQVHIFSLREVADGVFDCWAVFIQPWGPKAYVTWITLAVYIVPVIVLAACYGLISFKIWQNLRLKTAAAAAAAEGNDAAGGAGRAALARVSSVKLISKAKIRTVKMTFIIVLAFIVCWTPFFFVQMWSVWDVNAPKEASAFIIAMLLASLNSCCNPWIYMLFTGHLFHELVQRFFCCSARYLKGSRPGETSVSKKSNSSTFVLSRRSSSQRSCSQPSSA
recorded endpoint: IC50 (nM)

Reference set (5 entries):
Dear colleague, I am looking for the recorded IC50 of the following compound: COc1cc(C(=O)N2CCCC(CC(=O)N3CCN(C)CC3)c3cc(Cl)ccc32)ccc1NC(=O)c1ccccc1Br (stereo not shown)
270

Recorded IC50 of CNC(=S)NCCOC1CCCN(C(=O)c2ccc(NC(=O)c3ccccc3Cl)cc2OC)c2ccc(Cl)cc21 (stereo not shown) , please.
72

Any idea what its IC50 is? The compound is Cc1ccccc1CC(=O)Nc1ccc(C(=O)N2CCCC(O)c3cc(Cl)ccc32)cc1 (stereo not shown)
600

Any idea what IC50 was measured for C=CCN(C)CCC1CCCN(C(=O)c2ccc(NC(=O)c3ccccc3Cl)cc2C)c2ccc(Cl)cc21 (stereo not shown) ?
4040

Looking for the measured IC50 of COc1cc(NC(=O)c2ccccc2Cl)ccc1C(=O)N1CCCC(NC(=O)c2ccccc2Cl)c2cc(Cl)ccc21 (stereo not shown) , can you help?
1700

I: COc1cc(NC(=O)c2ccccc2Cl)ccc1C(=O)N1CCCC(CC(=O)NCCc2ccccn2)c2cc(Cl)ccc21 (stereo not shown)
II: COc1cc(NC(=O)c2ccccc2Cl)ccc1C(=O)N1CCCC(OCCN2CCCN(C)CC2)c2cc(Cl)ccc21 (stereo not shown)
Lab notebook, comparison: I versus II , higher IC50 goes to which? Pick one and reply with its label.
II

###

target: V2 Recepter (rat kidney plasma membrane preparations) (Rattus norvegicus); construct: rat kidney plasma membrane preparations; assay: V2 Recepter binding assay; conditions: [3H]-Arg-vasopressin 4×10^-10 M, 4° C., pH 8.0, rat kidney plasma membrane
Sequence (Q00788 whole entry): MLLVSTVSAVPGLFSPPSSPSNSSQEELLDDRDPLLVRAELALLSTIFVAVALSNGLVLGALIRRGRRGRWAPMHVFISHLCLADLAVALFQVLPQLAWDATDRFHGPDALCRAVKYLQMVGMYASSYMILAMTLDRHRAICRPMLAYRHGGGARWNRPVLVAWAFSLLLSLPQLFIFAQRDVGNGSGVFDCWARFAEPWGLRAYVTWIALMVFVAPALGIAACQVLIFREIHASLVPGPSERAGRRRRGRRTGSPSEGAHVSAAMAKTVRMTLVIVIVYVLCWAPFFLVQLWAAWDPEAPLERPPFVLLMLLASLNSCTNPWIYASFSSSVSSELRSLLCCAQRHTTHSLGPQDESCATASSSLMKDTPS
recorded endpoint: IC50 (nM)

See these solved cases before continuing.
# get_value(readout='IC50', item= C=CCN1CCN(C(=O)CC2CCCN(C(=O)c3ccc(NC(=O)c4ccccc4Cl)cc3OC)c3ccc(Cl)cc32)CC1 (centres unmarked) )
10

Please report the recorded IC50 for Cc1cc(NC(=O)c2ccccc2Cl)ccc1C(=O)N1CCCC(CCNC2CC2)c2cc(Cl)ccc21 (centres unmarked) .
7.1

If you can, please state the reported IC50 value of C=CCN(C)CCC1CCCN(C(=O)c2ccc(NC(=O)c3ccccc3Cl)cc2C)c2ccc(F)cc21 (centres unmarked) .
12

Tell me the measured IC50 of Cc1cc(NC(=O)c2ccccc2Cl)ccc1C(=O)N1CCCC(CCn2cnnn2)c2cc(Cl)ccc21 (centres unmarked) , please.
9

Please look up its IC50: Cc1cc(NC(=O)c2ccccc2Cl)ccc1C(=O)N1CCCC(CCN2CCOCC2)c2cc(Cl)ccc21 (centres unmarked)
17

P: CCOC(=O)N1CCN(CCC2CCCN(C(=O)c3ccc(NC(=O)c4ccccc4Cl)cc3OC)c3ccc(Cl)cc32)CC1 (centres unmarked)
Q: COc1cc(NC(=O)c2ccccc2Cl)ccc1C(=O)N1CCCC(CC(=O)NCc2cnc(C)cn2)c2cc(Cl)ccc21 (centres unmarked)
R: COc1cc(NC(=O)c2ccccc2Cl)ccc1C(=O)N1CCCC(CC(=O)N2CCN(CC(=O)N3CCCC3)CC2)c2cc(Cl)ccc21 (centres unmarked)
S: CC(C)NCCCCOc1ccccc1C(=O)Nc1ccc(C(=O)N2CCCC(CC(=O)N(C)C)c3cc(Cl)ccc32)cc1 (centres unmarked)
T: COc1cc(NC(=O)c2ccccc2Cl)ccc1C(=O)N1CCCC(CC(=O)N2CCN(CC(O)CNC(C)C)CC2)c2cc(Cl)ccc21 (centres unmarked)
Sort low-to-high on IC50, please. Answer with the labels in sequence, matching the requested order.
T, Q, R, P, S
(T: 2 nM, Q: 4 nM, R: 7.3 nM, P: 14 nM, S: 130 nM)

###

biological target: V1 Recepter (rat liver plasma membrane preparations) (Rattus norvegicus); construct: rat liver plasma membrane preparations; experiment: V1 Recepter binding assay; conditions: [3H]-Arg-vasopressin 2×10^-10 M, 37° C., 10 minutes, pH 8.0, rat liver plasma membrane
recorded endpoint: IC50 (nM)

The cases that follow already have their IC50 on record.
Which IC50 is reported for this compound? COc1cc(NC(=O)c2ccccc2Cl)ccc1C(=O)N1CCCC(CC(=O)NCCc2cccn2C)c2cc(Cl)ccc21 (stereo not shown)
21

Query (compound): COc1cc(NC(=O)c2ccccc2Cl)ccc1C(=O)N1CCCC(CC(=O)Nc2ccncc2)c2cc(Cl)ccc21 (stereo not shown) ; field requested: IC50
23

Which measured IC50 value corresponds to COc1cc(NC(=O)c2ccccc2Cl)ccc1C(=O)N1CCCC(OCCNC2CC2)c2cc(Cl)ccc21 (stereo not shown) ?
5

Fill blank: measured IC50 of the compound COc1cc(NC(=O)c2ccccc2Cl)ccc1C(=O)N1CCCC(OCCNCC#N)c2cc(Cl)ccc21 (stereo not shown) is ____.
46

I have this compound here, CCN(CCN(C)C)C(=O)COC1CCCN(C(=O)c2ccc(NC(=O)c3ccccc3Br)c(OC)c2)c2ccc(Cl)cc21 (stereo not shown) , and I need its recorded IC50.
3.6

1: C=CCOC1CCCN(C(=O)c2ccc(NC(=O)c3ccccc3C)cc2)c2ccc(Cl)cc21 (stereo not shown)
2: COc1cc(NC(=O)c2ccccc2Cl)ccc1C(=O)N1CCCC(CC(=O)NCc2cnc(C)cn2)c2cc(Cl)ccc21 (stereo not shown)
From the recorded data, which exceeds the other in IC50: 1 or 2 ? Refer to your chosen item by its label in the answer.
1
(1: 45 nM, 2: 12 nM)
